target: T1, human B7-H1 expressed on cells (human, UniProt Q9NZQ7 19-290); assay: FMAT, hybridoma supernatant, 293T cells expressing human B7-H1
T1 construct: whole, on cells; also called PD-L1; huB7-H1
T1 sequence (Q9NZQ7 19-290): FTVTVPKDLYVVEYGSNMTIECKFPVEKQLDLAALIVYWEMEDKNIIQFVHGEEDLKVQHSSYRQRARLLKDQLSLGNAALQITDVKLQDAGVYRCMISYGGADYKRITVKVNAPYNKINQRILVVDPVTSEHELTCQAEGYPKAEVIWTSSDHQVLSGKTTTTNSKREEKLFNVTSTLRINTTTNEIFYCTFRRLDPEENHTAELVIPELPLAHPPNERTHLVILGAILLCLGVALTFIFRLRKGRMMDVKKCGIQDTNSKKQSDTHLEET
In this section, each of the binders is paired with its reported Count.
The answer should be written as a number, with no unit following it.

2.20A8 (antibody, IgG2, V domains shown, also called mAb 2.20A8) VH: EVQLLESGGGLVQPGGSLRLSCAASGFTFSNYAMSWVRQAPGKGLEWVSAIRGSGGSTYYADSVKGRFTISRDNSKNTLYLQMNSLRAEDTAVYYCAKDLHYDSSGYLDYWGQGTLVTVSS VL: DIQMTQSPSSVSASVGDRVTITCRASQGIRSWLAWYQQKPGKAPKLLIYAISRLQSGVPSRFSGSGSGTDFTLTISSLQPEDFATYYCQQANSFPLTFGGGTKVEIK: 34

Count measured on 2.7A4 (antibody, IgG2, V domains shown, also called mAb 2.7A4) VH: EVQLVESGGGLVKPGGSLRLSCAASGFTFSTYSMNWVRQAPGKGLEWVSSISSSGDYIYYADSVKGRFTISRDNAKNSLFLQMNSLKAEDTAVYYCARDLVTSMVAFDYWGQGTLVTVSS VL: SYELTQPPSVSVSPGQAARITCSGDALPQKYVFWYQQKSGQAPVLVIYEDSKRPSGIPERFSGSSSGTMATLTISGAQVEDEADYYCYSTDRSGNHRVFGGGTRLTVL = 37

Count measured on 3.18G1 (antibody, V domains shown, also called mAb 3.18G1) VH: EVQLLESGGDLVQPGGSLRLSCAASGFTFNSYAMSWVRQAPGKGLEWVSTISGSGGFTFSADSVKGRFTISRDNSKNTLFLQMNSLRVEDSAVYSCAKVLVGFNNGCWDYWGQGTLVTVSS VL: SYVLTQPPSVSVAPGQTARITCGGNNIGSKSVHWYQQKPGQAPVLVVYDDSDRPSGIPERFSGSNSGNTATLTISRVEAGDEADYYCQVWDSSNDHVVFGGGTKLTVL = 21

Count measured on 3.15G8 (antibody, IgG4, V domains shown, also called mAb 3.15G8) VH: EVQLVESGGGLVQPGGSLRLSCAASGFTFSSYWMSWVRQAPGKGLEWVANIKQDGGEKYYVDSVKGRFTISRDNAKNSLFLQMNSLRAEDTAVYYCARVQLYSDYFDYWGQGTLVTVSS VL: DIQMTQSPSSVSASVGDRVTITCRASQGISSWLAWYQQKSGKAPKLLIYAASGLQSGVPSRFSGSGSGTDFTLTISSLQPEDLATYYCQQSHSLPPTFGQGTKVEIK = 22
